- TEST SUMMARY: Plasma exposure after s.c. injection, LC-MS
- Type: in vivo
- PROTOCOL CONDITIONS: male, C57BL/6N, mouse, sc, s.c. 3.75 mg/kg (2 μmol/kg), at 1 h, read-out: maximal plasma concentration
MEASURED ATTRIBUTE: Cmax
Lab note: write values as number then unit, every time.

// Cmax value for `CCCCCCCCCCCCCC(=O)N(CCOCCOCCC(=O)N[C@@H](Cc1c[nH]cn1)C(=O)N[C@@H](Cc1c[nH]c2ccccc12)C(=O)N[C@@H](CC(C)C)C(=O)N[C@@H](CCCCN)C(=O)N[C@H](C(=O)O)C(C)C)CCOCCOCCC(=O)N[C@@H](Cc1c[nH]cn1)C(=O)N[C@@H](Cc1c[nH]c2ccccc12)C(=O)N[C@@H](CC(C)C)C(=O)N[C@@H](CCCCN)C(=O)N[C@H](C(=O)O)C(C)C` : 1450 ng/mL
